- TESTED SYSTEM: BCL-XL (Homo sapiens)
- Construct: endogenous in cells; host or cells: MOLT-4
- TEST: Bcl-xL ELISA degradation in MOLT-4 cells, 6 h
- Type: cell-based
- ASSAY CONTEXT: read-out: Bcl-xL ELISA in MOLT-4 degradation 6 h: Mean external-Abs DC50
METRIC NAME: DC50

Would you please look over these solved cases?
{"columns": ["STRUCTURE AS SMILES", "METRIC NAME", "MEASURED VALUE"],
 "data": [
  ["Cc1ncsc1-c1ccc([C@H](C)NC(=O)[C@@H]2C[C@@H](O)CN2C(=O)[C@@H](NC(=O)CCCCCS(=O)(=O)NC(=O)c2nc(N3CCc4cccc(C(=O)Nc5nc6ccccc6s5)c4C3)ccc2-c2cnn(CC3CCCCC3)c2C)C(C)(C)CCOP(=O)(O)O)cc1", "DC50", "> 1000 nM"],
  ["C#Cc1ccc(CNC(=O)[C@@H]2C[C@@H](O)CN2C(=O)[C@@H](NC(=O)CCCCS(=O)(=O)NC(=O)c2nc(N(C)c3cc(C)c(Nc4nc5ccccc5s4)nn3)ccc2-c2cnn(CC34CC5CC(CC(C5)C3)C4)c2C)C(C)(C)C)cc1", "DC50", "10 to 100 nM"],
  ["C#Cc1ccc(CNC(=O)[C@@H]2C[C@@H](O)CN2C(=O)[C@@H](NC(=O)CCCCCS(=O)(=O)NC(=O)c2nc(N3CCc4cccc(C(=O)Nc5nc6ccccc6s5)c4C3)ccc2-c2cnn(CC3CCCC3)c2C)C(C)(C)C)cc1", "DC50", "< 10 nM"],
  ["Cc1ncsc1-c1ccc([C@H](C)NC(=O)[C@@H]2C[C@@H](O)CN2C(=O)[C@@H](NC(=O)N2CC(CN3CCC(S(=O)(=O)NC(=O)c4nc(N5CCc6cccc(C(=O)Nc7nc8ccccc8s7)c6C5)ccc4-c4cnn(CC5CCCCC5)c4C)CC3)C2)C(C)(C)C)cc1", "DC50", "10 to 100 nM"],
  ["C#Cc1ccc(CNC(=O)[C@@H]2C[C@@H](O)CN2C(=O)[C@@H](NC(=O)CCc2ccc(S(=O)(=O)NC(=O)c3nc(N(C)c4cc(C)c(Nc5nc6ccccc6s5)nn4)ccc3-c3cnn(CC(C)C)c3C)cc2)C(C)(C)C)cc1", "DC50", "> 1000 nM"],
  ["Cc1cc([C@@H](C(=O)N2C[C@H](O)C[C@H]2C(=O)NCc2ccc(-c3scnc3C)cc2OCCCCCCN(C)C(=O)c2nc(N3CCc4cccc(C(=O)Nc5nc6ccccc6s5)c4C3)ccc2-c2cnn(CC3CCCCC3)c2C)C(C)C)on1", "DC50", "10 to 100 nM"]
]}

Please report the recorded DC50 for `Cc1ncsc1-c1ccc([C@H](C)NC(=O)[C@@H]2C[C@@H](O)CN2C(=O)[C@@H](NC(=O)CCCCCCCCC(=O)N2CCN(CC#Cc3ccc(OCCCc4sc(N5CCc6cccc(C(=O)Nc7nc8ccccc8s7)c6C5)nc4C(=O)O)c(F)c3)CC2)C(C)(C)C)cc1` .
10 to 100 nM

Please report the recorded DC50 for `C#Cc1ccc(CNC(=O)[C@@H]2C[C@@H](O)CN2C(=O)[C@@H](NC(=O)CCCCS(=O)(=O)NC(=O)c2nc(N(C)c3cc(C)c(Nc4nc5ccccc5s4)nn3)ccc2-c2cnn(CC3CCCCC3)c2C)C(C)(C)C)cc1` .
100 to 500 nM

Please report the recorded DC50 for `Cc1ncsc1-c1ccc([C@H](C)NC(=O)[C@@H]2C[C@@H](O)CN2C(=O)[C@@H](NC(=O)c2ccc(N3CCC(S(=O)(=O)NC(=O)c4nc(N5CCc6cccc(C(=O)Nc7nc8ccccc8s7)c6C5)ccc4-c4cnn(CC5CCCCC5)c4C)CC3)cc2)C(C)(C)C)cc1` .
100 to 500 nM

Please report the recorded DC50 for `C#Cc1ccc(CNC(=O)[C@@H]2C[C@@H](O)CN2C(=O)[C@@H](NC(=O)CCCCCS(=O)(=O)NC(=O)c2nc(N3CCc4cccc(C(=O)Nc5nc6ccccc6s5)c4C3)ccc2-c2cnn(CC3CCCCC3)c2C)C(C)(C)CCO)cc1` .
< 10 nM

====

Dmax for assorted compounds
- TESTED SYSTEM: BCL-XL (Homo sapiens)
- Construct: endogenous in cells; host or cells: MOLT-4
- TEST: Bcl-xL ELISA degradation in MOLT-4 cells, 6 h
- Type: cell-based

{"columns": ["STRUCTURE AS SMILES", "TESTED SYSTEM", "Dmax"],
 "data": [
  ["Cc1ncsc1-c1ccc([C@H](C)NC(=O)[C@@H]2C[C@@H](O)CN2C(=O)[C@@H](NC(=O)C2CCN(c3ccc(S(=O)(=O)NCc4nc(N5CCc6cccc(C(=O)Nc7nc8ccccc8s7)c6C5)ccc4-c4cnn(CC5CCCCC5)c4C)cc3)CC2)C(C)(C)C)cc1", "BCL-XL (Homo sapiens)", "< 50%"],
  ["C#Cc1ccc(CNC(=O)[C@@H]2C[C@@H](O)CN2C(=O)[C@@H](NC(=O)CCCCCS(=O)(=O)NC(=O)c2nc(N3CCc4cccc(C(=O)Nc5nc6ccccc6s5)c4C3)ccc2-c2cnn(CC3CCCCC3)c2C)C(C)(C)CCO)cc1", "BCL-XL (Homo sapiens)", "> 75%"]
]}

Please report the recorded Dmax for `Cc1cc(N(C)c2ccc(-c3cnn(CC45CC6CC(CC(C6)C4)C5)c3C)c(C(=O)NS(=O)(=O)CCCCCC(=O)N[C@H](C(=O)N3C[C@H](O)C[C@H]3C(=O)NCc3ccc(-c4scnc4C)cc3)C(C)(C)C)n2)nnc1Nc1nc2ccccc2s1` .
> 75%

====

- TESTED SYSTEM: BCL-XL (Homo sapiens, UniProt Q07817)
- Construct: endogenous in cells; host or cells: MOLT-4
- Sequence (Q07817 whole entry): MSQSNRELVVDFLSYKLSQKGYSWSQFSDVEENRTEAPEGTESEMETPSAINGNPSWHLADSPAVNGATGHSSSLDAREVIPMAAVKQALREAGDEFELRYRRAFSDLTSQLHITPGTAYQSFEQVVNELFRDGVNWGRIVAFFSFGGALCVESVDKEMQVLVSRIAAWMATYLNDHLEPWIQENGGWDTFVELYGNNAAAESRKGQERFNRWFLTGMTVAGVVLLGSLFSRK
- TEST: Bcl-xL ELISA degradation in MOLT-4 cells, 6 h
- Assay type: cell-based
METRIC NAME: Dmax

{"columns": ["MOLECULE", "Dmax"],
 "data": [
  ["Cc1ncsc1-c1ccc(CNC(=O)[C@@H]2C[C@@H](O)CN2C(=O)[C@@H](NC(=O)CCc2cccc(S(=O)(=O)NC(=O)c3nc(N4CCc5cccc(C(=O)Nc6nc7ccccc7s6)c5C4)ccc3-c3cnn(CC4CCCCC4)c3C)c2)C(C)(C)C)cc1", "> 75%"],
  ["Cc1cc(C(C(=O)N2C[C@H](O)C[C@H]2C(=O)NCc2ccc(-c3scnc3C)cc2OCCN(C)C2CCN(C(=O)c3nc(N4CCc5cccc(C(=O)Nc6nc7ccccc7s6)c5C4)ccc3-c3cnn(CC4CCCCC4)c3C)CC2)C(C)C)on1 (stereo partly shown)", "50 to 75%"],
  ["Cc1ncsc1-c1ccc([C@H](C)NC(=O)[C@@H]2C[C@@H](O)CN2C(=O)C(c2cc(OC3CCN(c4ccc(S(=O)(=O)NC(=O)c5nc(N6CCc7cccc(C(=O)Nc8nc9ccccc9s8)c7C6)ccc5-c5cnn(CC6CCCCC6)c5C)cc4)CC3)no2)C(C)C)cc1 (stereo partly shown)", "< 50%"]
]}

Please report the recorded Dmax for `Cc1cc([C@@H](C(=O)N2C[C@H](O)C[C@H]2C(=O)NCc2ccc(-c3scnc3C)cc2OCCCN2CCN(C(=O)c3nc(N4CCc5cccc(C(=O)Nc6nc7ccccc7s6)c5C4)ccc3-c3cnn(CC4CCCCC4)c3C)CC2)C(C)C)on1` .
> 75%

Please report the recorded Dmax for `Cc1ncsc1-c1ccc(CNC(=O)[C@@H]2C[C@@H](O)CN2C(=O)[C@@H](NC(=O)C2(F)CC2)C(C)(C)C)c(OC2CCN(CCNC(=O)c3nc(N4CCc5cccc(C(=O)Nc6nc7ccccc7s6)c5C4)ccc3-c3cnn(CC4CCCCC4)c3C)CC2)c1` .
50 to 75%

Please report the recorded Dmax for `Cc1ncsc1-c1ccc([C@H](C)NC(=O)[C@@H]2C[C@@H](O)CN2C(=O)[C@@H](c2cc(OC3CN(CCCS(=O)(=O)NC(=O)c4nc(N5CCc6cccc(C(=O)Nc7nc8ccccc8s7)c6C5)ccc4-c4cnn(CC5CCCCC5)c4C)C3)no2)C(C)C)cc1` .
> 75%

Please report the recorded Dmax for `Cc1ncsc1-c1ccc([C@H](C)NC(=O)[C@@H]2C[C@@H](O)CN2C(=O)[C@H](c2cc(OC3CC4(C3)CN(C(=O)c3nc(N5CCc6cccc(C(=O)Nc7nc8ccccc8s7)c6C5)ccc3-c3cnn(CC5CCCCC5)c3C)C4)no2)C(C)C)cc1` .
< 50%

====

- TESTED SYSTEM: BCL-XL (Homo sapiens, UniProt Q07817)
- Construct: endogenous in cells; host or cells: MOLT-4
- TEST: BCL-XL degradation assay, western blot in MOLT-4 cells, 16 h
- Type: cell-based
- ASSAY CONTEXT: western blot, MOLT-4 cells, 16 h; read-out: Bcl-xL WB in MOLT-4 degradation 16 h: Average Dmax %
METRIC NAME: Dmax

Would you please look over these solved cases?
{"columns": ["STRUCTURE AS SMILES", "METRIC NAME", "MEASURED VALUE"],
 "data": [
  ["Cc1cc(N(C)c2ccc(-c3cnn(CC45CC6CC(CC(C6)C4)C5)c3C)c(C(=O)NS(=O)(=O)c3ccc(N4CCC(C(=O)N[C@H](C(=O)N5C[C@H](O)C[C@H]5C(=O)N[C@@H](C)c5ccc(-c6scnc6C)cc5)C(C)(C)C)CC4)cc3)n2)nnc1Nc1nc2ccccc2s1", "Dmax", "> 75%"],
  ["Cc1ncsc1-c1ccc([C@H](C)NC(=O)[C@@H]2C[C@@H](O)CN2C(=O)[C@@H](NC(=O)CCCCCC(=O)N(C)CC#Cc2cccc(F)c2OCCCc2sc(N3CCc4cccc(C(=O)Nc5nc6ccccc6s5)c4C3)nc2C(=O)O)C(C)(C)C)cc1", "Dmax", "> 75%"],
  ["Cc1ncsc1-c1ccc(CNC(=O)[C@@H]2C[C@@H](O)CN2C(=O)[C@@H](NC(=O)CCOCCOCCOCCOCCOCCOCC#Cc2ccc(OCCCc3sc(N4CCc5cccc(C(=O)Nc6nc7ccccc7s6)c5C4)nc3C(=O)O)cc2)C(C)(C)C)cc1", "Dmax", "> 75%"],
  ["Cc1ncsc1-c1ccc([C@H](C)NC(=O)[C@@H]2C[C@@H](O)CN2C(=O)[C@@H](NC(=O)CCCCCC(=O)N2CCN(CC#Cc3ccc(OCCCc4sc(N5CCc6cccc(C(=O)Nc7nc8ccccc8s7)c6C5)nc4C(=O)O)cc3)CC2)C(C)(C)C)cc1", "Dmax", "50 to 75%"]
]}

Here's the next entry for you.
Please report the recorded Dmax for `Cc1ncsc1-c1ccc([C@H](C)NC(=O)[C@@H]2C[C@@H](O)CN2C(=O)[C@@H](NC(=O)CCCCCC(=O)N(C)CC#Cc2ccc(OCCCc3sc(N4CCc5cccc(C(=O)Nc6nc7ccccc7s6)c5C4)nc3C(=O)O)c(F)c2)C(C)(C)C)cc1` .
> 75%
